Exercise: for every item that follows, state its recorded inhibition.
Test system: Prunus dulcis
Assay: Inhibition of almond beta-glucosidase at 10 uM using PNPG as substrate after 3 mins by UV-vis spectrophotometric method relative to control
Answers are plain numbers, in %.

Look up inhibition for the entries below, preserving their order.
1. OC[C@H]1C[C@H](Cl)[C@@H](O)[C@H](O)[C@H]1CO (racemic)
2. OC[C@H]1C[C@H](O)[C@@H](O)[C@H](O)[C@H]1CO (racemic)
3. C[C@H]1O[C@H](O[C@H]2[C@H](O)[C@@H](O)[C@@H](O[C@H]3[C@H](O)[C@@H](O)C(O)O[C@@H]3CO)O[C@@H]2CO)[C@H](O)[C@@H](O)[C@@H]1N[C@H]1C=C(CO)[C@@H](O)[C@H](O)[C@H]1O (stereo not given in full) [ACARBOSE]
4. OC[C@H]1C[C@@H](O)[C@H](O)[C@@H](O)[C@H]1CO (racemic)
5. OC[C@H]1C[C@H](O)[C@@H](Cl)[C@H](O)[C@H]1CO (racemic)

Key:
1.99
2.24
17
3.74
2.49

Cited source for all entries: ChEMBL document CHEMBL4229463
